# Test system: HCT-116 cells
# Experimental Details: MTT antiproliferative assay, HCT-116
# Assay type: cell-based, human
# Assay Setup: IC50 on normal cells (L02)/IC50 on tumor cells (HCT-116)
Reported values of Selectivity index HCT-116 for individual entries
Form field (numeric): enter value without unit.

Below, each entry is followed by its recorded Selectivity index HCT-116 result.
Test Smiles	Selectivity index HCT-116
O=C1NC(=O)C(=Cc2cn(-c3cc(Cl)ccc3Cl)nn2)C(=O)N1	4.17
O=C1NC(=O)C(=Cc2cn(-c3ccc(Cl)cc3)nn2)C(=O)N1	8.36

IN: Report Selectivity index HCT-116 for `O=C1NC(=O)C(=Cc2cn(-c3ccc(C(F)(F)F)cc3)nn2)C(=O)N1` tested on HCT-116 cells.
OUT: 3.82

IN: Could you share what Selectivity index HCT-116 was measured for `O=C1NC(=O)C(=Cc2cn(-c3cccc(Br)c3)nn2)C(=O)N1` , tested on HCT-116 cells?
OUT: 3.42

IN: Lab note: need Selectivity index HCT-116 with HCT-116 cells for entry `O=C1NC(=O)C(=Cc2cn(-c3cccc(Cl)c3)nn2)C(=O)N1` , please look it up.
OUT: 6.28

* * *

# Tested on: MCF-7 cells
# Experimental Details: MTT antiproliferative assay, MCF-7
# Assay type: cell-based, human
# Assay Setup: Homo sapiens, MCF7, 48 h, read-out: Growth Inhibition at 100 μM (%) MCF-7
Assay Metric: inhibition at 100 µM

Example entries begin here.
Compound	inhibition at 100 µM
Cc1ccc(-n2cc(C=C3C(=O)NC(=O)NC3=O)nn2)cc1 [Compound 3r]	< 5%
O=C1CC(=O)NC(=O)N1 [Barbituric acid]	< 5%

Now look at this entry.
IN: If you can, please state the reported inhibition at 100 µM value of Cc1ccc(-n2nc(C)c(C=C3C(=O)NC(=O)NC3=O)c2C)cc1 [Compound 4d] .
OUT: < 5%

* * *

# System: MCF-7 cells
# Experimental Details: MTT antiproliferative assay, MCF-7
# Assay type: cell-based, human
# Assay Setup: Homo sapiens, MCF7, 48 h, read-out: Growth Inhibition at 100 μM (%) MCF-7
Assay Metric: inhibition at 100 µM (%)
Return type: number; implicit unit %.

IN: Sample `O=C1NC(=O)C(=Cc2cn(-c3ccc(F)cc3)nn2)C(=O)N1` — what was its inhibition at 100 µM?
OUT: 34.1

IN: Param item = `COc1ccc(-n2cc(C=C3C(=O)NC(=O)NC3=O)nn2)cc1OC` ; retrieve measured inhibition at 100 µM.
OUT: 18.6

IN: If you can, please state the reported inhibition at 100 µM value of `O=C1NC(=O)C(=Cc2cn(-c3cccc(Br)c3)nn2)C(=O)N1` .
OUT: 31.7
